Tested on: 108 yjdF RNA (WT, B. subtilis) (RNA, riboswitch) GGUAUAUGGUAAAGAAUGAAAAAACACGAUUCGGUUGGUAGUCCGGAUGCAUGAUUGAGAAUGUCAGUAACCUUCCCCUCCUCGGGAUGUCCAUCAUUCUUUAAUAUCU
ASSAY DETAILS: in-line probing
EXPERIMENTAL PARAMETERS: 100 mM KCl, 20 mM MgCl2; 50 mM Tris-HCl pH 8.3, 25 °C, 36-48 h, RNA <5 nM; apparent
ENDPOINT NAME: KD (nM)

{"columns": ["SMILES ENTRY", "UNIT LABEL", "MEASURED RESULT"],
 "data": [
  ["COc1ccc2c(c[n+](C)c3c4cc5c(cc4ccc23)OCO5)c1OC", "nM", 2.5],
  ["Cc1cc2nc3c(=O)[nH]c(=O)nc-3n(C)c2cc1C", "nM", 800]
]}

[1] Nc1ccc2cc3ccc(N)cc3nc2c1
[2] C[n+]1cc2c3c(ccc2c2ccc4cc5c(cc4c21)OCO5)OCO3
Asked: Hi team, can someone confirm which has the larger KD: 1 or 2 ? Thanks. Provide the label of your selected option as the answer.
Given back: 1
